assay: protein stability index of a GFP-peptide fusion (yeast GPS) (PSI 1-4); higher = more stable; sorted into four equal gates, so the index is relative within each strain; settings: ubr1∆
Quick reference for protein stability index among some sequences
Measured Quantity: protein stability index

Sequence Input | Recorded Result
SADYEILYEIRALYTPF [YDL116W/NUP84] | 2.06
GNRYLEKRLNLRVEHIK [RPL21A] | 3.05
RASDLRMTIRTRGRSAT [RRP43] | 2.33
CGGINDSIPYPQIVKLF [ECM29] | 1.71
AQPSVQSSFAGTWSAKE [FAS2] | 3.09
APKWYPSEDVAAPKKTR [RPL6B] | 1.98
TRFKAVVVVGDSNGHVG [RPS2] | 1.99
LQPVIPGGAASKSVPTP [SNF5] | 3.13
LSNEFTATNSKGEQIAI [ECM29] | 3.26
MNLQNNVLNQIHQILLP [CSE2] | 3.21
VISTIENVLFYIGRVNK [COB] | 2.62
QLDLTGIFLHGKIPTLK [PRP8] | 1.36
QLLNGQKIVVVRAEELN [RPL16A] | 1.21
VQGLLQNAAANAEAKGL [RPL17A] | 2.4

* * *

assay: protein stability index of a GFP-peptide fusion (yeast GPS) (PSI 1-4); higher = more stable; sorted into four equal gates, so the index is relative within each strain; conditions: ubr1∆
Label class 1 when protein stability index >= 3; otherwise class 0.

Sequence Input | Category Label
RDVSDDVFDTLATYCPR [GRR1] | class 1
EKLLKELENNEFTENEL [ITC1] | class 1
NNVAYGKKRFRVVTVDG [SMC4] | class 0
VLLDARDIEKITSLYAL [CDC53] | class 0
QKCFKLTHRLGGDTCSS [POP1] | class 0
KRRVTNLEFNYTKPYPN [SMC2] | class 0
VAQLKPFFKYIDDANVT [RPC37] | class 0
GRGGSGWKPYYKLFIWL [YML031W/NDC1] | class 0
YGTENKDGEDIIFNYVP [CSL4] | class 1
EDVALNEQVKKFFLNNV [NAS6] | class 0
YSTCPSETDLNDIPLGS [SRB8] | class 0
TELKKITDKTIKAFMDS [IRR1] | class 0
DKDVKAKYETSILEHSG [FAS2] | class 1
VQVRSVMDPITSKRKAE [DIS3] | class 0
YPLWVMAKQLIRLANES [CSN12] | class 0
KLRRECSNPTCGAGVFL [RPS31] | class 0
EVEPALLLLQDYVTNPD [RPN1] | class 0
VKYINFGKTVKDGPFYT [RPC31] | class 0
NVSIVANYIKERTKNAQ [SMC4] | class 1
DSVAAIGIPVNKASLAQ [QCR2] | class 0
FNITDNGVRALFHSCTR [GRR1] | class 0
QDRIQDVKLVLASNFDN [MED1] | class 0
TGGGLFGSKPTGATSLF [YGL172W/NUP49] | class 1
NTLVRPNGTKKAYVRLT [RPL25] | class 1
FLKLVLSESPVDFEKFE [SIN4] | class 0
IAKFERSEEEVTKLNVL [YIL149C/MLP2] | class 1
VRELFEMARTKKACIIF [RPT1] | class 0
AKSISTSAKEPSENDVF [RPO31] | class 1
AQGLLHLGKGTMTMDVF [RPN1] | class 0
ESSKLMTVTKVSLPEGS [BRR2] | class 0
YIIQGSNTNDNISIITL [RGR1] | class 0
AAELLDKRIVISIDSWP [DIS3] | class 0
ARERKTATYNDNMSEEQ [SNF2] | class 1
EDDTQIVTGNLVLDLLT [IRR1] | class 0
QPSDVMFNDLNSMDISM [MED2] | class 0
DVTPADDLKQKKEELVE [RPO31] | class 1
TELSNKETTIEKLSSEI [YIL149C/MLP2] | class 1
AIACYSGYNQEDSMIMN [RPB2] | class 0
IYRTTRQDGSYTYHSTN [ARP9] | class 0
QELELPGEFVTAIAHSI [SNF5] | class 0
KDVAKPTGPKTAIDKNG [FAS2] | class 1
LIQKLQNSANNNSDDED [IRR1] | class 1
PSKLVITKLHLDKDRKA [RPL26A] | class 0
SLRRIRDEMSKAELPQW [MED8] | class 0
FTMMTSEPLTLKVLSEH [PCI8] | class 0
VYAQQSTVQTPITASMA [PGD1] | class 0
DTLLLLPTDGGLTSRLQ [POP4] | class 1
TSVDGKKRSKVRKETYS [HTB2] | class 1
SQTTLVQFGLNEETFTV [ARP9] | class 0
HGIVFQHPFPLAHSQHR [SSN2] | class 0
WGIPLIKELRSKGYPIQ [FAS1] | class 0

Hello, the source for this data is the supplement of paper PMC9732359, in case you need it.
